The reported numbers originate from the NIST ThermoML archive (doi:10.1021/je100042c).

# test-parameters: 353.15 K; 101.33 kPa; Liquid; Concentric cylinders viscometry
Each record is given label 1 if its reported viscosity is strictly below 1 mPa·s. Records at or above 1 mPa·s are given label 0.

molecule	category-label
CCCCCCCCCC(=O)OCC [ethyl decanoate]	label 1
CCCCCCCCCCCCCCCCCC(=O)OC [methyl octadecanoate]	label 0
CCCCCCCCCCCCCC(=O)OCC [ethyl tetradecanoate]	label 0
CCCCCCCC/C=C\CCCCCCCC(=O)OC [methyl cis-9-octadecenoate]	label 0
CCCCCCCC(=O)OC [methyl octanoate]	label 1
CCCCCCCCCCCC(=O)OC [methyl dodecanoate]	label 0
CCCCC/C=C\C/C=C\CCCCCCCC(=O)OC [methyl (Z,Z)-9,12-octadecadienate]	label 0
CCCCCCCCCCCCCCCCCC(=O)OCC [ethyl octadecanoate]	label 0
CCCCCCCCCCCC(=O)OCC [ethyl dodecanoate]	label 0
CCCCCCCCCCCCCC(=O)OC [methyl tetradecanoate]	label 0

Ask | Please determine if CCCCCCCCCC(=O)OC [methyl decanoate] is below 1 mPa·s in terms of viscosity.
Reply | label 1

Ask | Moving on to the next molecule: CCCCCCCCCCCCCCCC(=O)OCC [ethyl hexadecanoate]
Reply | label 0

Ask | Moving on to the next molecule: CCCCCCCCCCCCCCCC(=O)OC [methyl hexadecanoate]
Reply | label 0

Ask | Moving on to the next molecule: CCCCCCCC/C=C\CCCCCCCC(=O)OCC [ethyl (Z)-9-octadeceneoate]
Reply | label 0
